All figures here come from the array DNA melting data of Ke et al. (doi:10.1101/2024.01.08.574731).

# assay-remarks: melting temperature; fluorescence melt of hairpins on a sequencing array, two-state fit, raised by 9.35 °C to match UV melts
# settings: sodium 0.088 M
# binarize Tm: threshold 50 °C inclusive, high side Criterion met, low side Criterion not met

INSERT INTO assay_data (seq_text, assigned_class) VALUES
  ('GGTTACGGAAACGTGACC (((.(((....))).)))', 'Criterion met'),
  ('GATCTAACAATAGATC ((((((....))))))', 'Criterion not met'),
  ('GTTATAGGAAACTGTAAC ((((.((....)).))))', 'Criterion not met'),
  ('GGGCCGCGAAAGCGTCCC (((.(((....))).)))', 'Criterion met'),
  ('GATCCGAAAACGGATC ((((((....))))))', 'Criterion met'),
  ('GGGTCGCGAAAGCGCCCC (((.(((....))).)))', 'Criterion met'),
  ('GCCATTGGAAACAATGAC (.(((((....))))).)', 'Criterion not met'),
  ('GTTCGCGGAAACGCAAAC (((.(((....))).)))', 'Criterion not met'),
  ('GCGATGTGTCGC ((((....))))', 'Criterion met'),
  ('GAGAACGGAAACATTCTC (((((.(....).)))))', 'Criterion not met'),
  ('GAGACACGAAAGTGCTC (((.(((....))))))', 'Criterion not met'),
  ('GCTCAAGCGAAAGCTAGC (((..(((....))))))', 'Criterion not met'),
  ('GCCGGGGGAAACTCCGGC (((((.(....).)))))', 'Criterion met'),
  ('GCGTACGAAAGTATCGC ((((((....))).)))', 'Criterion met'),
  ('GATCTTAAGCAAGATC ((((((....))))))', 'Criterion not met'),
  ('GATAGGGGAAACCCCATC (((.(((....))).)))', 'Criterion not met'),
  ('GCAATTGGAAACAATTGC (((((((....)))))))', 'Criterion met'),
  ('GCACTGGGAAACCGGTGC ((((.((....)).))))', 'Criterion met'),
  ('GATCAATAGCTTGATC ((((((....))))))', 'Criterion not met'),
  ('TTACGGAAACGTAA (((((....)))))', 'Criterion not met'),
  ('GCACGGGGAAACTCGTGC (((((.(....).)))))', 'Criterion met');
